// Velvetleaf plant response rating lookup, one value per entry
System: velvetleaf
Experiment: Test B pre-/postemergence herbicide test
Format: in vivo, Abutilon theophrasti
Settings: postemergence, 500 g ai/ha; visual rating, scale 0 (no effect) to 100 (complete control)
I'd appreciate a reply containing only the number, no unit.

CCc1nc(C(C)(C)C)sc1C(=O)Nc1cccc(C(=O)N(C)CC)c1 [Compound 229]    70
CCOc1cccc(NC(=O)c2cc(C(C)(C)C)nn2CC)c1 [Compound 136]    70
CCn1nc(C(C)(C)C)cc1C(=O)Nc1cc(C(=O)NCC2CC2)ccn1 [Compound 155]    70
Cn1nc(C(C)(C)C)cc1C(=O)Nc1cccc(C#N)c1 [Compound 121]    20
CCOC(=O)c1cccc(NC(=O)c2sc(C(C)(C)C)nc2CC)c1 [Compound 204]    70
CC(C)(C)c1cc(C(=O)Nc2cccc(SC(F)(F)F)c2)n(CCF)n1 [Compound 132]    60
CC(=O)c1cccc(NC(=O)c2cc(C(C)(C)C)nn2CCF)c1 [Compound 128]    60
Cc1nn(C(C)(C)C)cc1C(=O)Nc1cccc(OC(C)C)c1 [Compound 189]    20
CCN(CC)C(=O)c1cccc(NC(=O)c2sc(C(C)(C)C)nc2C)c1 [Compound 199]    30
CC(=O)c1cccc(NC(=O)c2cc(C(C)(C)C)nn2CC(F)(F)F)c1 [Compound 126]    40

# assay system velvetleaf: give Velvetleaf plant response rating of CCc1nc(C(C)(C)C)sc1C(=O)Nc1cccc(C(=O)N(CC)CC)c1 [Compound 205] 40

# assay system velvetleaf: give Velvetleaf plant response rating of CCc1nc(C(C)(C)C)sc1C(=O)Nc1cccc(C(=O)NCCF)c1 [Compound 209] 20

# assay system velvetleaf: give Velvetleaf plant response rating of CCN(CC)C(=O)c1ccnc(NC(=O)c2cc(C(C)(C)C)nn2CC)c1 [Compound 153] 60

# assay system velvetleaf: give Velvetleaf plant response rating of CCc1nc(C(C)(C)C)sc1C(=O)Nc1cccc(C(=O)NCC2CC2)c1 [Compound 212] 70

# assay system velvetleaf: give Velvetleaf plant response rating of CC(=O)c1cccc(NC(=O)c2sc(C(C)(C)C)nc2C)c1 [Compound 196] 0

# assay system velvetleaf: give Velvetleaf plant response rating of CCc1nn(C(C)(C)C)cc1C(=O)Nc1cc(C(=O)N(C)CC)ccc1F [Compound 224] 60

# assay system velvetleaf: give Velvetleaf plant response rating of CCc1nc(C(C)(C)C)sc1C(=O)Nc1cccc(C(=O)NC(C)(C)C)n1 [Compound 216] 60

---

System: large crabgrass
Assay: Test B pre-/postemergence herbicide test
Assay type: in vivo, Digitaria sanguinalis
Settings: postemergence, 125 g ai/ha; visual rating, scale 0 (no effect) to 100 (complete control)
Doc: threshold 10 (exclusive). Items with Crabgrass, Large plant response rating beneath it return Condition met; others return Condition not met.

Look over these answered cases.
CCN(CC)C(=O)c1cccc(NC(=O)c2nn(C(C)(C)C)cc2Cl)c1    Condition met
CCNC(=O)c1cccc(NC(=O)c2cc(C(C)(C)C)nn2CC)n1    Condition not met
CCNC(=O)c1cc(NC(=O)c2cc(C(C)(C)C)nn2CC)c(F)cc1F    Condition met
CCNC(=O)c1cc(NC(=O)c2cc(C(C)(C)C)nn2CC)ccn1    Condition met
CC(=O)c1cccc(NC(=O)c2cc(C(C)(C)C)nn2CC(F)(F)F)c1    Condition not met
CCc1nc(C(C)(C)C)sc1C(=O)Nc1cccc(C(=O)NC(C)(C)C)n1    Condition met

Is 10 strictly greater than the molecule's reported Crabgrass, Large plant response rating? molecule: `C#CCNC(=O)c1cc(NC(=O)c2cc(C(C)(C)C)nn2CC)ccn1` Condition met

Is 10 strictly greater than the molecule's reported Crabgrass, Large plant response rating? molecule: `C#CCNC(=O)c1cccc(NC(=O)c2cc(C(C)(C)C)nn2CC)n1` Condition not met
